Tested on: Saccharomyces cerevisiae;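 also: PSI is a weighted mean of sequencing reads over stability bins, variants kept only with over 10 reads, mCherry proximal and sfGFP distal, peptide attached via GGGS linker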
Assay: protein stability index of tFT-peptide fusion (C-terminal peptide) (PSI (0-1 scale)); higher = more stable (slower turnover)
Details: genetic background: wild type; temperature: 30 C
readout kind: protein stability index
Keep the answer to the number alone.

Before answering, review these 5 worked examples.
# query: protein stability index of entry `VRVGVGGVSEFE`
0.671

# query: protein stability index of entry `FSVRLCLFVWGC`
0.436

# query: protein stability index of entry `WVHTLHARIGCQ`
0.625

# query: protein stability index of entry `WEPILLELELCV`
0.436

# query: protein stability index of entry `IHQDGEQKETRK`
0.695

---
# query: protein stability index of entry `KKKNEKQNRLKN`
0.769

# query: protein stability index of entry `YSVFCPLFFIIY`
0.379

# query: protein stability index of entry `CRLLYYIPCGLF`
0.498
